Items are presented alongside their recorded self-cleavage.
B1: CPEB3 Ribozyme (parent)
chain: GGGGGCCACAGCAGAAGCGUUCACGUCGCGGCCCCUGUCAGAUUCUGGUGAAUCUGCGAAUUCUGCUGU

# Variants of: B1
# assay notes: self-cleavage, relative activity (ratio to wild type); higher = more cleavage; co-transcriptional

# variant key, self-cleavage
records = [
    ("C32G G48C", 0.604),
    ("A16C A60C", 0.215),
    ("C32U A52C", 0.913),
    ("U38G A60C", 0.137),
    ("A13C U61G", 0.406),
    ("C18G U38A", 0.158),
    ("C9A A52U", 1.03),
    ("C34G C63U", 0.666),
    ("A8U C63U", 1.03),
    ("A8G G58A", 0.867),
    ("G14A C35A", 0.202),
    ("G1A C7U", 0.0863),
    ("G11A G37U", 0.156),
    ("A40U G41U", 0.664),
    ("C12A A51C", 0.544),
    ("C18G U49A", 0.259),
    ("A13G C22U", 0.207),
    ("C6G U46A", 0.377),
    ("G31A G47C", 0.921),
    ("G19U C45A", 0.459),
    ("G11C A16U", 0.49),
    ("C32U U53C", 0.875),
    ("C24A C32G", 0.234),
    ("G2C U21C", 0.0403),
    ("G4C A10C", 0.844),
    ("G4C U38C", 0.302),
    ("A8U C33U", 0.996),
    ("U21G A59U", 0.219),
    ("U20C U62A", 0.133),
    ("G2C C9U", 0.0977),
    ("C12A G48U", 0.8),
    ("G4C A16U", 0.197),
    ("U21C G68C", 0.899),
    ("C12U C33G", 0.656),
    ("C12U C45G", 0.98),
    ("C7A G19A", 0.14),
    ("A52U G56A", 0.909),
    ("U46A A59U", 0.842),
    ("A8G G65U", 0.223),
    ("C7A U67A", 0.884),
    ("G31A U55C", 0.547),
    ("C9G U49A", 1),
    ("G19C U61A", 0.216),
    ("U26G A59U", 0.455),
    ("C45U C66U", 0.984),
    ("U38A U43A", 0.784),
]
